Where these numbers come from: patent US20260201064A1

- target or system: T1, recombinant human ASM protein (human, UniProt P17405 47-630)
- T1 construct: Recombinant human ASM in solution; also called acid sphingomyelinase (ASM) protein
- T1 sequence: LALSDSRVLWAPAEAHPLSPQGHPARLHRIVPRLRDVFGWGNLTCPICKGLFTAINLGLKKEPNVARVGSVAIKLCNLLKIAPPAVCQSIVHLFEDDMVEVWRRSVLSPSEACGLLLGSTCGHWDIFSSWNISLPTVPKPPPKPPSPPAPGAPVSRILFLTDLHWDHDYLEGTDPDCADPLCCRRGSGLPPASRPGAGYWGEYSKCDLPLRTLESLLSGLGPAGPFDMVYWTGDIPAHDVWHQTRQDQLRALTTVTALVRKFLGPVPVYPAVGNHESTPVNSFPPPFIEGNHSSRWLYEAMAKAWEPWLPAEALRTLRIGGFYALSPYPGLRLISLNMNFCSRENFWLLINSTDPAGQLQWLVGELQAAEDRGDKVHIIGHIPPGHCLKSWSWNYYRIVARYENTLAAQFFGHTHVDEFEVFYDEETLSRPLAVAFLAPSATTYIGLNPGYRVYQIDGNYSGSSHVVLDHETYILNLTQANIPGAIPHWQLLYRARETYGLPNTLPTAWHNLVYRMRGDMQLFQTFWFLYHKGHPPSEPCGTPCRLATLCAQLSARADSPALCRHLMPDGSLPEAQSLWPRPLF
- assay protocol: BLI (Octet), antibody on AHC sensor
- Method: The binding affinity, to the ASM protein, of the produced antibodies specifically binding to the ASM protein and the interactive dynamics therebetween were measured using an Octet® QK384 system (Pall Life Sciences). First, an antibody specifically binding to the ASM protein produced in Example 1 was captured using an anti-human IgG Fc capture (AHC) biosensor, and 1.25, 2.5, 5, 10, or 20 nM recombinant human ASM protein solution was added thereto. […]
Each entry below carries its reported koff.
Provide only the numeric value, understood in s⁻¹.

# binder, unit info, assay result
measured = [
    ("#9104a-E4 (antibody, human IgG4 S228P, lambda, V domains shown, VH of #9104v-H17 with VL of #9104v-L65; full-length IgG, lambda) VH: EVQLLESGGGLVQPGGSLRLSCAASGFTFSNYYMSWVRRAPGKGLEWVSGIYYGSGTPYYAASVKGRFTISRDNSKNTLYLQMNSLRAEDTAVYYCARDTPGFDYWGQGTLVTVSS VL: QSVLTQPPSASGTPGQRVTISCTGSSSNIGNNAVNWYQQLPGTAPKLLIYYDYYQSSGVPDRFSGSKSGTSASLAISGLRSEDEADYYCGAWDYSLSAYVFGGGTKLTVLG", "s⁻¹", "4.15e-05"),
]

Entry under test: #9104a-E2 (antibody, human IgG4 S228P, lambda, V domains shown, VH of #9104v-H11 with VL of #9104v-L65; full-length IgG, lambda) VH: EVQLLESGGGLVQPGGSLRLSCAASGFTFSNYYMSWVRQAPGKGLEWVSGIYYGSGIPYYADSVKERFTISRDNSKNTLYLQMNSLRAEDTAVYYCARDTPGFDYWGQGTLVTVSS VL: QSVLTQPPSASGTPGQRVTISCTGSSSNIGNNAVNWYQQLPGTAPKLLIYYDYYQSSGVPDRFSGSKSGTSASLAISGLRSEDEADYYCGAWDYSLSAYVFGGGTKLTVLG . Its koff was 4.27e-05

Entry under test: #9104a-E1 (antibody, human IgG4 S228P, lambda, V domains shown, VH of #9104v-H10 with VL of #9104v-L65; full-length IgG, lambda) VH: EVQLLESGGGLVQPGGSLRLSCAASGFTFSNYYMSWVRQAPGKGLEWVSGIYYGNGIPYYADSVKDRFTISRDNSKNTLYLQMNSLRAEDTAVYYCARDTPGFDYWGQGTLVTVSS VL: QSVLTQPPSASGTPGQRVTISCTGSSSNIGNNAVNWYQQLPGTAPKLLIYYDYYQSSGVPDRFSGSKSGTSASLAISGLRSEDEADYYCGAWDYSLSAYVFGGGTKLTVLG . Its koff was 6.21e-05

Entry under test: #9104a-D8 (antibody, human IgG4 S228P, lambda, V domains shown, VH of #9104v-H33 with VL of #9104v-L64; full-length IgG, lambda) VH: EVQLLESGGGLVQPGGSLRLSCAASGFTFSNYYMSWVRQAPGKGLEWVSGVYYPSGNPYYADSVKGRFTISRDNSKNTLYLQMNSLRAEDTAVYYCARDTPGFDYWGQGTLVTVSS VL: QSVLTQPPSASGTPGQRVTISCTGSSSNIGNNAVNWYQQLPGTAPKLLIYYDYFSHSGVPDRFSGSKSGTSASLAISGLRSEDEADYYCGAWDYSLSAYVFGGGTKLTVLG . Its koff was 3.33e-05

Entry under test: #9104a-B1 (antibody, human IgG4 S228P, lambda, V domains shown, VH of #9104v-H10 with VL of #9104v-L21; full-length IgG, lambda) VH: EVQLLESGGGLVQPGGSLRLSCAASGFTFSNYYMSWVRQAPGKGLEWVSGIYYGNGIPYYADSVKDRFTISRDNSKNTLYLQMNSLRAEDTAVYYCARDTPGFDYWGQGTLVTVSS VL: QSVLTQPPSASGTPGQRVTISCTGSSSNIGNNAVNWYQQLPGTAPKLLIYYDMFRPNGVPDRFSGSKSGTSASLAISGLRSEDEADYYCGAWDYSLSAYVFGGGTKLTVLG . Its koff was 3.45e-05
